Adenosine receptor A2a (Rattus norvegicus) Ki data
Sequence (P30543 whole entry): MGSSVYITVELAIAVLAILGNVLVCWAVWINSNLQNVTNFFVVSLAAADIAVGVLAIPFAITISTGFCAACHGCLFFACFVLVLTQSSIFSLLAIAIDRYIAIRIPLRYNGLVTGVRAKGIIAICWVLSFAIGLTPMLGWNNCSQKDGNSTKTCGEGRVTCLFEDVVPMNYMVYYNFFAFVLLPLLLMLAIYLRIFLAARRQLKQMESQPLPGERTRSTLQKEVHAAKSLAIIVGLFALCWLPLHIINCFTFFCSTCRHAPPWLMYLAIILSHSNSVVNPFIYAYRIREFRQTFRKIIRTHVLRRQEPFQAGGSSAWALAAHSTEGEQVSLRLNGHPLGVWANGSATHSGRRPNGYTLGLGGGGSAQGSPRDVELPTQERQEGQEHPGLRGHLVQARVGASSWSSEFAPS
recorded-metric: Ki (µM)

- structure-string: "CC(C)CSC[C@H]1O[C@@H](n2cnc3c(NC4CCCC4)ncnc32)[C@H](O)[C@@H]1O"
  observed-measurement: 10.3
- structure-string: "CCSC[C@H]1O[C@@H](n2cnc3c(NC4CCCC4)ncnc32)[C@H](O)[C@@H]1O"
  observed-measurement: 19
- structure-string: "C[Se]C[C@H]1O[C@@H](n2cnc3c(NC4CCCC4)ncnc32)[C@H](O)[C@@H]1O"
  observed-measurement: 11.3
- structure-string: "CSC[C@H]1O[C@@H](n2cnc3c(NC4CCCC4)ncnc32)[C@H](O)[C@@H]1O"
  observed-measurement: 13.5
- structure-string: "CCCSC[C@H]1O[C@@H](n2cnc3c(NC4CCCC4)ncnc32)[C@H](O)[C@@H]1O"
  observed-measurement: 18.8
- structure-string: "CNC[C@H]1O[C@@H](n2cnc3c(NC4CCCC4)ncnc32)[C@H](O)[C@@H]1O"
  observed-measurement: 45.5
- structure-string: "O[C@@H]1[C@H](O)[C@@H](CCl)O[C@H]1n1cnc2c(NC3CCCC3)ncnc21"
  observed-measurement: 8.75
